- target-or-test-system: human CD28 (human, UniProt P10747 19-220)
- test-summary: cell-based or functional assay
endpoint-name: Luciferase assay (EC50) (nM)

P: 1h-239-850 (other) VL: DIQMTQSPSSLSASVGDRVTITCRASRPIWPFLEWYQQKPGKAPKLLIYFTSRLQSGVPSRFSGSGSGTDFTLTISSLQPEDFATYYCLQNVSMPATFSQGTKVEIKR
Q: 1h-30 (other) VH: EVQLLESGGGLVQPGGSLRLSCAASGFTFAHYHMGWVRQAPGKGLEWVSWIPADGLRTYYADSVKGRFTISRDNSKNTLYLQMNSLRAEDTAVYYCAKYEGAFDYWGQGTLVTVSS
R: 1h-99-238 (other) VH: EVQLLESGGGLVQPGGSLRLSCAASGFTFDSANMSWARQAPGKGLEWVSWIEASGVQTFYADSVKGRFTISRDNSKNTLYLQMNSLRAEDTAVYYCAKSPFGPLYGFDYRGQGTLVTVSS
In this exercise, place the 3 binders in ascending sequence of their recorded Luciferase assay (EC50). Give the labels in the order specified.
R, P, Q
(R: 3 nM, P: 9 nM, Q: 1200 nM)
